tested system: T1, IL-18 receptors on HEK-Blue IL-18 reporter cells (InvivoGen) (UniProt Q13478 19-541; O95256 20-599)
T1 sequence (looked up) 1: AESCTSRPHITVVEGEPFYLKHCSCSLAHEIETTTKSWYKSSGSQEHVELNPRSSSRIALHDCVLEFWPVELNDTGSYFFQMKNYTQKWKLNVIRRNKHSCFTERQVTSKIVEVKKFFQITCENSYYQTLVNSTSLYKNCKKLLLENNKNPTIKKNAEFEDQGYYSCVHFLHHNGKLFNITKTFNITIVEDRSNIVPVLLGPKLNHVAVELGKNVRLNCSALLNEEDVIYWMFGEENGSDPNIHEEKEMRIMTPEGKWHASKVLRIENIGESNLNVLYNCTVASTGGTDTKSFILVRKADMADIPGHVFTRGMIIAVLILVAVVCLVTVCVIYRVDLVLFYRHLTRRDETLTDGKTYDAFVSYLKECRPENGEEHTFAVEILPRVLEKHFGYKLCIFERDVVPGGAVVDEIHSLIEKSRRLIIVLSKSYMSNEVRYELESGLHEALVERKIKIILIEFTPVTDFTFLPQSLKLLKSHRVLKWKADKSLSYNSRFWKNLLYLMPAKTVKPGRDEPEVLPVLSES
T1 sequence (looked up) 2: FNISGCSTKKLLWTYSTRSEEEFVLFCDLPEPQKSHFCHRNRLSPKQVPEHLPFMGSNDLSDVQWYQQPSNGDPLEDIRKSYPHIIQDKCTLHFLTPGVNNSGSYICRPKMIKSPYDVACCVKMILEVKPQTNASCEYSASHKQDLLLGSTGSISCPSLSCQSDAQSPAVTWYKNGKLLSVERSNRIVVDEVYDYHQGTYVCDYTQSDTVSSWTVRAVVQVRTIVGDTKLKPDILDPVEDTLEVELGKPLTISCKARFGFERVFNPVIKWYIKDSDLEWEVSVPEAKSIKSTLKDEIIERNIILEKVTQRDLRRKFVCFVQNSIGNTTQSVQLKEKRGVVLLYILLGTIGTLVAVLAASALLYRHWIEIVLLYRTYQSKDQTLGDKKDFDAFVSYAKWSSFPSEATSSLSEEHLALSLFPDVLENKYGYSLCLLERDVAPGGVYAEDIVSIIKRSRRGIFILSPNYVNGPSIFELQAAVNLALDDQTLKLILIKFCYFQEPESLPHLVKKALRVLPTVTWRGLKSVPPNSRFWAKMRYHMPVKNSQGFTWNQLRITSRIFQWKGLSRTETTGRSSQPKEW
assay text: cell-based or functional assay
# maps each entry to its HEK-Blue Activity Assay Ec50 (pM), -hu IL-18BP
quantity name: HEK-Blue Activity Assay Ec50 (pM), -hu IL-18BP

[
  {
    "binder": "IL-18 variant G3T, M60K, D157E (ligand) YFTKLESKLSVIRNLNDQVLFIDQGNRPLFEDMTDSDMRDNAPRTIFIISMYKDSQPRGKAVTISVKSEKISTLSSENKIISFKEMNPPDNIKDTKSDIIFFQRSVPGHDNKMQFESSSYEGYFLASEKERDLFKLILKKEDELGDRSIMFTVQNEE",
    "observed result": 0.75
  },
  {
    "binder": "IL-18 variant G3V, E6K, K53A (ligand, also called G3V, K53A, E6K) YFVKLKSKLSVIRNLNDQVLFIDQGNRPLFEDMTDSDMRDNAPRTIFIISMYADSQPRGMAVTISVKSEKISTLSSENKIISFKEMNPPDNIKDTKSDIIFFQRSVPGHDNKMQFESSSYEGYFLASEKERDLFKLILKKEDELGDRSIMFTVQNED",
    "observed result": 0.02
  },
  {
    "binder": "IL-18 variant G3T, E6K, K53A (ligand, also called G3T, K53A, E6K) YFTKLKSKLSVIRNLNDQVLFIDQGNRPLFEDMTDSDMRDNAPRTIFIISMYADSQPRGMAVTISVKSEKISTLSSENKIISFKEMNPPDNIKDTKSDIIFFQRSVPGHDNKMQFESSSYEGYFLASEKERDLFKLILKKEDELGDRSIMFTVQNED",
    "observed result": 0.04
  },
  {
    "binder": "IL-18 variant G3V, M60K (ligand) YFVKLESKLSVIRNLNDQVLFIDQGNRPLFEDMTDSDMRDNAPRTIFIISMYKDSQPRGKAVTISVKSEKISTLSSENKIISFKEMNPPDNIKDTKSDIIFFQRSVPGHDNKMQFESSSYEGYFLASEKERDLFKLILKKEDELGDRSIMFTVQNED",
    "observed result": 0.18
  },
  {
    "binder": "IL-18 variant G3T, M60K (ligand) YFTKLESKLSVIRNLNDQVLFIDQGNRPLFEDMTDSDMRDNAPRTIFIISMYKDSQPRGKAVTISVKSEKISTLSSENKIISFKEMNPPDNIKDTKSDIIFFQRSVPGHDNKMQFESSSYEGYFLASEKERDLFKLILKKEDELGDRSIMFTVQNED",
    "observed result": 0.76
  },
  {
    "binder": "Comparator 1 (human IL-18 variant M51K, K53S, Q56L, P57A, M60L, S105D, D110S, N111R) (ligand) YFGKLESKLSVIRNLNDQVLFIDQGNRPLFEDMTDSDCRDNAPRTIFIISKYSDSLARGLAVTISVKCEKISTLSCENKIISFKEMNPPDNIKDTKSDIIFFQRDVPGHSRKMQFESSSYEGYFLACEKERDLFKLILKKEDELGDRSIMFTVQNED",
    "observed result": 0.08
  },
  {
    "binder": "IL-18 variant G3V, M60K, D157E (ligand) YFVKLESKLSVIRNLNDQVLFIDQGNRPLFEDMTDSDMRDNAPRTIFIISMYKDSQPRGKAVTISVKSEKISTLSSENKIISFKEMNPPDNIKDTKSDIIFFQRSVPGHDNKMQFESSSYEGYFLASEKERDLFKLILKKEDELGDRSIMFTVQNEE",
    "observed result": 0.16
  }
]
